test: Human HepG2 cell viability assay in 384 well format; assay type: toxicity, cell-based; parameters: dose 125 nL, time 70.5 hour; concentration not given beside the values; conditions: HepG2 cells, read-out: Inhibition
Each entry below carries its reported cytotoxicity at 70.5 h.

| Compound | cytotoxicity at 70.5 h, % |
| --- | --- |
| CCC(NC(=O)C1CCN(C(=O)C2CC2)CC1)c1cn2cccnc2n1 (stereo not drawn) | -8.35 |
| c1cc(-c2cc(C3CCN(Cc4cncnc4)C3)ccn2)ccn1 (stereo not drawn) | 0.319 |
| O=C(NCc1ccccn1)[C@H]1COC[C@H]2CN(CC3CC3)C[C@H]21 | -10.6 |

----------
experiment: Human HepG2 cell viability assay in 384 well format; format: toxicity, cell-based; design: dose 125 nL, time 70.5 hour; concentration not given beside the values; settings: HepG2 cells, read-out: Inhibition
Each entry below carries its reported cytotoxicity at 70.5 h.
Quantity Measured: cytotoxicity at 70.5 h (%)

| Molecule | Observed Result |
| --- | --- |
| CCOCC1CN(S(=O)(=O)C2CC2)Cc2ncn(CC3CC3)c21 (stereo not given) | -4.92 |
| CC(C)C(=O)N1CCc2onc(C(=O)NCCN(C)C)c2C1 | -5.11 |
| Cc1ccoc1C(=O)NC1CCN(Cc2cccc3c2OCCO3)CC1 | 6.48 |
| Nc1ccnc(N2CCCC(CCc3ccccc3)(C(=O)O)C2)n1 (stereo not given) | -3.28 |
| CCS(=O)(=O)N1CCC(c2nnc(C3CC3)o2)CC1 | 3.63 |
| CCn1cc(CN2C[C@H]3CC[C@@H]2CN(C(=O)C2CCC2)C3)cn1 | -6.91 |
| O=C1CO[C@H](c2ccc(NS(=O)(=O)c3ccccc3)cc2)[C@@H](CO)N1 | 11.6 |
| COC[C@]1(O)CCN(C(=O)c2cccc(CN(C)C)c2)CC1(C)C | -5.34 |
| CCNC(=O)CN(CC)S(=O)(=O)c1c(Br)cc2[nH]c(=O)oc2c1Cl | -12.3 |
| O=C(NC1CCc2ccccc2C1)N1CCN(C(=O)C2CCC2)CC1 (stereo not given) | -5.12 |
| Cc1c(NC(C)C(C)C)cccc1C(=O)NCc1nccn1C (stereo not given) | -3.37 |
| CN1C[C@@H]2CN(Cc3ccsc3)CCC[C@]2(C(=O)O)C1 | -2.55 |
| Cc1cccc2c1cnn2CCCNC(=O)C(C)C | -10 |
| CO[C@@]1(C)C[C@@H](O)C12CCN(C(=O)CCn1c(C)cccc1=O)CC2 | -4.42 |
| Cc1nc(C(C)(C)NC(=O)Nc2ccccc2)no1 | 1.88 |

----------
test: Human HepG2 cell viability assay in 384 well format; format: toxicity, cell-based; set-up: dose 125 nL, time 70.5 hour; concentration not given beside the values; conditions: HepG2 cells, read-out: Inhibition
Each entry below carries its reported cytotoxicity at 70.5 h.

| Compound | cytotoxicity at 70.5 h (%) |
| --- | --- |
| O=C(Nc1cccc(CN2CCOC2=O)c1)N1CCSCC1 | -10.5 |
| CC(C)NC(=O)N1CC[C@H]2N(C)CC[C@@]2(C(=O)Nc2cccnc2)CC1 | -10.8 |
| N#Cc1cnc(N2Cc3cnn(Cc4ccc(F)cc4)c3C2)nc1N | -6.63 |
| C[C@@H]1CN(C(=O)c2ccc(Br)cc2F)CC(C(N)=O)O1 (some centres not stated) | -4.88 |
| O=C(CCc1cccc(F)c1F)N1CCN(Cc2ccco2)CC1 | -8.06 |
| CN(Cc1noc(C2CC2)n1)C1CCN(CCc2cccs2)C1 (configuration not stated) | -2.4 |
| CCOC(C(=O)N1CCn2c(nnc2C(C)C)C1)c1ccccc1 (configuration not stated) | 19.3 |

----------
experiment: Human HepG2 cell viability assay in 384 well format; assay type: toxicity, cell-based; set-up: dose 125 nL, time 70.5 hour; concentration not given beside the values; conditions: HepG2 cells, read-out: Inhibition
Quantity Measured: cytotoxicity at 70.5 h (%)

| Molecule | Quantity Measured | Observed Result |
| --- | --- | --- |
| Cc1ccccc1C(=O)N1CC(C(=O)NCC2CC2)C2(CCOCC2)C1 (stereo unspecified) | cytotoxicity at 70.5 h | -1.13 |
| CSc1ccc(NCC(=O)Nc2c(C)nn(C)c2C)cc1F | cytotoxicity at 70.5 h | -4.28 |
| COC(=O)COn1c(SC)nc2ccccc2c1=O | cytotoxicity at 70.5 h | -9.2 |
| O=C(c1cccnc1-n1cncn1)N1CCc2ccccc2C1 | cytotoxicity at 70.5 h | -10.4 |
| Cc1ccc(C#N)c(N2CCC3(CCCN(C4CCOCC4)C3=O)C2)n1 (stereo unspecified) | cytotoxicity at 70.5 h | -1.26 |
| CCn1cnnc1CNC(=O)N1CCC(C)CC1 | cytotoxicity at 70.5 h | 16.5 |

----------
assay: Human HepG2 cell viability assay in 384 well format; format: toxicity, cell-based; design: dose 125 nL, time 70.5 hour; concentration not given beside the values; conditions: HepG2 cells, read-out: Inhibition

| Compound | Measurement Unit | cytotoxicity at 70.5 h |
| --- | --- | --- |
| CN(CCCc1cnn(C)c1)C(=O)C1COc2ccccc2C1 (stereo not drawn) | % | -5.74 |
| CCn1ncc(-c2cc(C(F)F)nc3sc(C(N)=O)c(N)c23)c1C | % | 9.78 |
| CCc1cccc(N2CCC(NC(=O)CCNC(N)=O)CC2)c1 | % | -6.16 |

----------
experiment: Human HepG2 cell viability assay in 384 well format; type: toxicity, cell-based; set-up: dose 125 nL, time 70.5 hour; concentration not given beside the values; details: HepG2 cells, read-out: Inhibition
Each entry below carries its reported cytotoxicity at 70.5 h.

| Compound | cytotoxicity at 70.5 h (%) |
| --- | --- |
| COC(=O)CC(c1ccc(OC)c(OC)c1)c1oc(C)cc(=O)c1O (centres undefined) | 5.4 |
| CC(c1c(F)cccc1F)N1CCN(Cc2nccn2C)CC1 (centres undefined) | 24.5 |
| O=S(=O)(Nc1ccc(N2CCOCC2)cn1)c1cccc(F)c1 | -3.99 |
| CCn1cc(-c2n[nH]c(=O)n2-c2ccc3c(c2)OCO3)c(C)n1 | -4.59 |
| Cc1cc(CN2CC[C@H]3C[C@H](c4nccs4)O[C@@H]3C2)no1 | -15.6 |
| Cn1ncc2c1CCCC2NCc1cccc2c1OCCCO2 (centres undefined) | 0.963 |
| Cc1cc(CN2C[C@@H]3COC[C@]3(CNS(C)(=O)=O)C2)no1 | 1.21 |
| COCc1ccc(C(=O)N2CCN(CC3CC3)[C@@H]3CS(=O)(=O)C[C@@H]32)o1 | -1.28 |
| CC(C)NC(=O)C[C@@H]1CCNC[C@@H]1Cc1cc(-c2ccccc2)on1 | -1.73 |
| c1cncc(-c2ncnc3c2CCN(Cc2cccs2)CC3)c1 | 16.4 |
| CCCc1nnc(N2CCN(C3CCCC3)CC2)o1 | -14.3 |
| CCN(Cc1ccncc1)c1cc(C2CCCNC2)nc(C)n1 (centres undefined) | -7.35 |
| CC(=O)OC1CN(c2nc3c(C)cccc3s2)C1 | -15.1 |
| CCOCCCNc1ncc(-c2cccc(F)c2)c(-c2nccn2C)n1 | -3.33 |
| CCC(NC(=O)NCc1cccc(N(C)C)n1)c1cccs1 (centres undefined) | -11.8 |
| Cc1cnc(N2CCCC3(COCCN(c4ccc(C)nn4)C3)C2)nc1 (centres undefined) | -2.56 |
| CCO[C@H]1CN(C(=O)c2ccc3c(c2)OCO3)[C@@H]2COC[C@H]12 | -2.21 |
| Cc1ccc(CNC(=O)N(Cc2ccccc2F)C2CC2)cn1 | -1.38 |
| CN(Cc1cnn(C)c1)C(=O)NC1CCCC1 | -7.1 |
| COc1cccc2c1OCCCN(Cc1ncccc1C(=O)O)C2 | -3.58 |
| O=C(C1=CCCC1)N1CCC[C@]2(C[C@@H](Oc3ncccc3F)CO2)C1 | -6.43 |
| O=C(C1CCC1)N1CCC(C(=O)N2CCC(c3ccc(F)cc3)C2)CC1 (centres undefined) | 3.33 |
| CCN1CC2(CC1=O)CN(Cc1ccc(C)o1)CCN(C(=O)C(C)C)C2 (centres undefined) | -16.6 |
| Cc1cc(C)n(C2CN(Cc3ccccn3)C2)n1 | -9.82 |
| CCC1CN(Cc2c(O)ccc3oc4c(c23)CCCC4)CCO1 (centres undefined) | 8.92 |
| Cc1cccc2c1nc(CCO)n2-c1ccc(NS(C)(=O)=O)nc1 | -8.44 |
| CCc1cccc(OCC(=O)N2CCCC(n3cncn3)C2)c1 (centres undefined) | -9.33 |
| CC(c1nc(C2CC2)no1)N1CCN(Cc2cccnc2)CC1 (centres undefined) | -6.99 |
| CCn1cc(CN2CCC3(CC2)c2ccccc2CC3O)cn1 (centres undefined) | -8.46 |
| CN1CCN(Cc2cn3c(n2)CN(Cc2cccnc2)CC3)CC1 | 19.4 |
| COc1ccc(C2CCN(Cc3cscn3)CC2)cc1 | 0.308 |
| COC(=O)c1ccc(F)c(S(=O)(=O)Nc2ccc(C(N)=O)cc2)c1 | -16.7 |
| CC(C)(C)OC(=O)NC1(c2noc(-c3ccco3)n2)CCC1 | -9.18 |
| CCn1c(C2CCCN(Cc3cc(F)ccc3OC)C2)nn(C)c1=O (centres undefined) | -9.41 |

Where these numbers come from: ChEMBL document CHEMBL3507680
